tested on: SK-MEL-5; assay: NCI tumour cell line growth inhibition, 48 h
Calls of active or inactive are those of the source. No stated cut-off is given here; in the data, active = GI50 up to about 1.1 µM and inactive = higher.
Measured Endpoint: GI50

{"Compound": "C=Cn1c([N+](=O)[O-])cnc1/C=C/c1ccc(C(=O)OCCN2CCOCC2)cc1", "Measured Endpoint": "GI50", "Reported Measurement": "51.9 µM (inactive)"}
{"Compound": "CCOC(=O)CCCn1nnc(C(=O)OCC)c1C(=O)OCC", "Measured Endpoint": "GI50", "Reported Measurement": "> 100 µM (inactive)"}
{"Compound": "O=C(O)c1cc(-c2ccc3cc(O)c(O)cc3c2)ccc1O", "Measured Endpoint": "GI50", "Reported Measurement": "> 12.5 µM (inactive)"}
{"Compound": "COc1ccc(/C=C/NC=O)cc1", "Measured Endpoint": "GI50", "Reported Measurement": "> 100 µM (inactive)"}
{"Compound": "Cc1ccc(S(=O)(=O)OCC23CCC(C4CC42)C2CC23)cc1 (stereo unspecified)", "Measured Endpoint": "GI50", "Reported Measurement": "31.6 µM (inactive)"}
{"Compound": "COc1ccc2nc3cc(Cl)ccc3c(NCCCN(C)CCCNc3ccc4ncn5c6ccccc6c(=O)c3c45)c2c1", "Measured Endpoint": "GI50", "Reported Measurement": "0.366 µM (active)"}
{"Compound": "O=S(=O)(O)c1cc(/N=N/c2cccc3ccccc23)c(O)c2ncccc12", "Measured Endpoint": "GI50", "Reported Measurement": "31.1 µM (inactive)"}
{"Compound": "CCNc1ncnc2sc(SCc3ccccc3)nc12", "Measured Endpoint": "GI50", "Reported Measurement": "25.6 µM (inactive)"}
{"Compound": "Cc1ccc(NC(=O)CC(=O)N2N=C(N(C)c3ccccc3)CC2c2ccccc2)cc1 (stereo unspecified)", "Measured Endpoint": "GI50", "Reported Measurement": "> 100 µM (inactive)"}
{"Compound": "COc1cc(/N=N\\c2cccc(S(=O)(=O)O)c2)c(C)cc1/N=N\\c1ccc(/C=C/c2ccc(/N=[N+](/[O-])c3ccc(/C=C/c4ccc(/N=N\\c5cc(C)c(/N=N/c6cccc(S(=O)(=O)O)c6)cc5OC)cc4)c(S(=O)(=O)O)c3)cc2S(=O)(=O)O)cc1", "Measured Endpoint": "GI50", "Reported Measurement": "> 100 µM (inactive)"}
{"Compound": "O=[N+]([O-])c1ccc(-c2cc(O)c3nc4ccccc4n3c2)cc1", "Measured Endpoint": "GI50", "Reported Measurement": "> 100 µM (inactive)"}
{"Compound": "CCOC(=O)C(C(N)=O)C1=Nc2cc([N+](=O)[O-])ccc2N/C1=C\\C(=O)c1ccccc1 (stereo unspecified)", "Measured Endpoint": "GI50", "Reported Measurement": "16.7 µM (inactive)"}
{"Compound": "COc1ccc(OC)c(C(=O)/C=C/c2cc(O)c(O)cc2F)c1", "Measured Endpoint": "GI50", "Reported Measurement": "0.558 µM (active)"}
{"Compound": "COc1cccc2ccc3c(c12)C(=O)OC31CCc2c(C)cccc21 (stereo unspecified)", "Measured Endpoint": "GI50", "Reported Measurement": "10.2 µM (inactive)"}
{"Compound": "CN(C)CC(=O)N1CCc2c([nH]c3ccccc23)C1c1cccnc1 (stereo unspecified)", "Measured Endpoint": "GI50", "Reported Measurement": "> 100 µM (inactive)"}
{"Compound": "Cc1ccc(S(N)(=O)=O)cc1 [P-TOLUENESULFONAMIDE]", "Measured Endpoint": "GI50", "Reported Measurement": "> 1000 µM (inactive)"}
{"Compound": "Cn1c(=O)c2ccc(-c3ccc(Br)cc3)nc2n(C)c1=O", "Measured Endpoint": "GI50", "Reported Measurement": "> 100 µM (inactive)"}
{"Compound": "Cn1c(=N)n[n+]([O-])c2ccccc21", "Measured Endpoint": "GI50", "Reported Measurement": "1.83 µM (inactive)"}
{"Compound": "COC(=O)C1=CC2CCCC1(O)C(C(C)=O)C2 (stereo unspecified)", "Measured Endpoint": "GI50", "Reported Measurement": "> 100 µM (inactive)"}
{"Compound": "CCN(CC)CCNc1c(OC)cc(C)c2sc3ccccc3c(=O)c12", "Measured Endpoint": "GI50", "Reported Measurement": "1.91 µM (inactive)"}
{"Compound": "CCCCCCCCCCCC/C=C\\CC[C@@H](O)[C@H](O)CC[C@H](O)[C@@H]1CC[C@@H](CCCCCCCC2=C[C@H](C)OC2=O)O1", "Measured Endpoint": "GI50", "Reported Measurement": "1.26 µM (inactive)"}
{"Compound": "CNc1ncnc2c1ncn2C1C=CC(COS(N)(=O)=O)C1 (stereo unspecified)", "Measured Endpoint": "GI50", "Reported Measurement": "> 100 µM (inactive)"}
{"Compound": "Nc1ncnc2c1ncn2C1CCC(CP(=O)(O)O)C1 (stereo unspecified)", "Measured Endpoint": "GI50", "Reported Measurement": "> 100 µM (inactive)"}
{"Compound": "CCOC(=O)c1nc2ccccc2nc1NCc1ccc(OC)c(OC)c1", "Measured Endpoint": "GI50", "Reported Measurement": "> 100 µM (inactive)"}
{"Compound": "N#CC(C(=O)CCC(=O)Nc1ccc(Cl)cc1)c1ccccc1Cl (stereo unspecified)", "Measured Endpoint": "GI50", "Reported Measurement": "> 100 µM (inactive)"}
{"Compound": "CN(C)CC1CCCC/C1=N/OC(=O)c1ccc(Cl)c(Cl)c1 (stereo unspecified)", "Measured Endpoint": "GI50", "Reported Measurement": "> 100 µM (inactive)"}
{"Compound": "O=C1NCCS(=O)(=O)N2CCC[C@@H]12", "Measured Endpoint": "GI50", "Reported Measurement": "> 100 µM (inactive)"}
{"Compound": "O=C(Nc1ccccc1)N(CCCCN(Cc1ccccc1)C(=O)Nc1ccccc1)Cc1ccccc1", "Measured Endpoint": "GI50", "Reported Measurement": "> 100 µM (inactive)"}
{"Compound": "CSc1ncnc2c1CCN2", "Measured Endpoint": "GI50", "Reported Measurement": "2.92 µM (inactive)"}
{"Compound": "COc1ccc2nc(C(=O)c3ccccc3)c(C)cc2c1", "Measured Endpoint": "GI50", "Reported Measurement": "3.15 µM (inactive)"}
{"Compound": "CC(=O)c1c2c(cc3c1CC1(Cc4cc5c(cc4C1)CCCC5)C3)CCCC2", "Measured Endpoint": "GI50", "Reported Measurement": "10.3 µM (inactive)"}
